The reported numbers originate from patent US7323469B2.

Documented melting point across a set of compounds

1) C[C@@H](Nc1ncnc2[nH]c(-c3ccc(CNC4CCOCC4)cc3)cc12)c1ccccc1 [Example 16b]    253 to 255 °C
2) C[C@@H](Nc1ncnc2[nH]c(-c3ccc(CN4CCOCC4)cc3)cc12)c1ccccc1    263 to 265 °C
3) C[C@@H](Nc1ncnc2[nH]c(-c3ccc(CNC(=O)CN4CCCC4)cc3)cc12)c1ccccc1    196 to 198 °C

Continue with the next compound.
Tell me the measured melting point of "C[C@@H](Nc1ncnc2[nH]c(-c3ccc(CNC(=O)c4ccccn4)cc3)cc12)c1ccccc1" , please. 221 to 223 °C

###

Biological target: EGF-R (HER-1) (Homo sapiens, UniProt P00533)
Construct: using the recombinant intracellular domain of the EGF-receptor [EGF-R ICD
Sequence (P00533 669-1210 limits assumed): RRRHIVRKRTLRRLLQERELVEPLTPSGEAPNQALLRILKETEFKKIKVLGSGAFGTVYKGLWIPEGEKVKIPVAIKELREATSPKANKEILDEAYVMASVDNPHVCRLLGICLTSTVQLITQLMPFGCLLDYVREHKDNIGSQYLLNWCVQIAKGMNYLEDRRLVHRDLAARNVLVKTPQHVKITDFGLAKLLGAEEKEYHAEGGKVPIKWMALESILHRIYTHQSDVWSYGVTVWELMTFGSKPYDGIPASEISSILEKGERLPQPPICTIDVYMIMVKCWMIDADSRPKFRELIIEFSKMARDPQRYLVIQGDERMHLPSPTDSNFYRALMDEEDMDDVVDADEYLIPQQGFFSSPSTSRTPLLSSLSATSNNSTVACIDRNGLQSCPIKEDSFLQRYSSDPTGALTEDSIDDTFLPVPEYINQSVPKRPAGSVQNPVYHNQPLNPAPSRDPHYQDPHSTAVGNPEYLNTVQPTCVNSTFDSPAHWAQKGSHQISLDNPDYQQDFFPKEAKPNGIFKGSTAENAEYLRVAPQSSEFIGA
Experiment: Inhibition of EGF-R tyrosine kinase activity (recombinant intracellular domain, EGF-R ICD)
Protocol: J. Biochem. 207, 265-275 (1992)]. Inhibition of the Tyrosine Kinase Activity of EGF-R (HER-1), ErbB-2 (HER-2) and VEGF Receptor (KDR) The inhibition tests are carried out as described above.
pIC50: −log10 of the molar value.
measurement label: pIC50

1. Clc1cccc(CNc2ncnc3[nH]c(-c4ccc(CN5CCOCC5)cc4)cc23)c1 [Example 86]    8.26
2. Fc1ccc(Nc2ncnc3[nH]c(-c4ccc(CN5CCCCC5)cc4)cc23)cc1Cl [Example 6]    8.15
3. O=C(CN1CCOCC1)NCc1ccc(-c2cc3c(Nc4ccc(F)c(Cl)c4)ncnc3[nH]2)cc1 [Example 48]    8.24
4. CN1CCN(Cc2ccc(-c3cc4c(Nc5ccc(OCc6ccccc6)cc5)ncnc4[nH]3)cc2)CC1 [Example 18]    7.78
5. C[C@@H](Nc1ncnc2[nH]c(-c3ccc(CNCCN4CCOCC4)cc3)cc12)c1ccccc1 [Example 16a]    8.92

P: Cc1cccc(CNc2ncnc3[nH]c(-c4ccc(CN(C)C)cc4)cc23)c1 [107f^]
Q: C[C@@H](Nc1ncnc2[nH]c(-c3ccc(CN4CCCC4)cc3)cc12)c1ccccc1 [Example 12]
// compare measured pIC50 between P and Q ; output the lower one Give the label under which the chosen entry appears. Q
(Q: 8.33, P: 8.60)

P: CCN1CCN(Cc2ccc(-c3cc4c(Nc5ccc(F)c(Cl)c5)ncnc4[nH]3)cc2)CC1 [Example 3]
Q: C[C@@H](Nc1ncnc2[nH]c(-c3ccc(CNC(=O)CN4CCN(C)CC4)cc3)cc12)c1ccccc1 [Example 43]
Just curious, which one has the larger pIC50 reading, P or Q ? Give the label under which the chosen entry appears. P

P: C[C@@H](Nc1ncnc2[nH]c(-c3ccc(CN4CCCCC4)cc3)cc12)c1ccccc1 [Example 14]
Q: CN1CCN(Cc2ccc(-c3cc4c(Nc5ccc(F)c(Cl)c5)ncnc4[nH]3)cc2)CC1 [Example 5]
Just curious, which one has the larger pIC50 reading, P or Q ? Give the label under which the chosen entry appears. Q
(Q: 8.51, P: 8.20)

a: C[C@@H](Nc1ncnc2[nH]c(-c3ccc(CN(C)C)cc3)cc12)c1ccccc1 [Example 13]
b: CN(C)Cc1ccc(-c2cc3c(Nc4ccc(=O)[nH]c4)ncnc3[nH]2)cc1 [Example 116]
c: Fc1ccc(Nc2ncnc3[nH]c(-c4ccc(CN5CCCC5)cc4)cc23)cc1Cl [Example 4]
Order the records by pIC50, with each subsequent value no larger than the one before. Please list each label once, in the requested order. c, a, b

###

Target: EGF-R (HER-1) (Homo sapiens)
Construct: using the recombinant intracellular domain of the EGF-receptor [EGF-R ICD
Experiment: Inhibition of EGF-R tyrosine kinase activity (recombinant intracellular domain, EGF-R ICD)
pIC50: −log10 of the molar value.
measurement label: pIC50

1) CN1CCN(Cc2ccc(-c3cc4c(NCc5ccccc5Cl)ncnc4[nH]3)cc2)CC1 [Example 94]    8.74
2) Fc1ccc(Nc2ncnc3[nH]c(-c4ccc(CN5CCOCC5)cc4)cc23)cc1Cl [Example 7]    8.40

a: CN1CCN(CC(=O)NCc2ccc(-c3cc4c(Nc5ccc(OCc6ccccc6)cc5)ncnc4[nH]3)cc2)CC1 [Example 52]
b: C[C@@H](Nc1ncnc2[nH]c(-c3ccc(CN4CCOCC4)cc3)cc12)c1ccccc1 [Example 15]
Just curious, which one has the larger pIC50 reading, a or b ? Give the label under which the chosen entry appears. b

###

Documented melting point across a set of compounds

1. CCN1CCN(Cc2ccc(-c3cc4c(Nc5ccc(OCc6ccccc6)cc5)ncnc4[nH]3)cc2)CC1    256 to 258 °C
2. CCN(CC)Cc1ccc(-c2cc3c(NCc4cccc(Cl)c4)ncnc3[nH]2)cc1    231 to 233 °C
3. Cc1cc2c(F)c(Oc3ncnc4[nH]c(-c5ccc(CN6CCOCC6)cc5)cc34)ccc2[nH]1    280 to 282 °C
4. COc1cc(CNc2ncnc3[nH]c(-c4ccc(CN(C)C)cc4)cc23)ccn1    210 to 211 °C
5. CCN1CCN(Cc2ccc(-c3cc4c(NCc5cccc(C)c5)ncnc4[nH]3)cc2)CC1 [Example 107j]    250 to 252 °C

Tell me the measured melting point of CC(C)NCc1ccc(-c2cc3c(N[C@H](C)c4ccccc4)ncnc3[nH]2)cc1 [Example 16e] , please. 266 to 268 °C

Tell me the measured melting point of "CN1CCN(Cc2ccc(-c3cc4c(Nc5ccc(F)c(Cl)c5)ncnc4[nH]3)cc2)CC1" , please. 264 to 266 °C

Tell me the measured melting point of "CCN1CCN(Cc2ccc(-c3cc4c(NCc5cc[nH]c(=O)c5)ncnc4[nH]3)cc2)CC1" , please. 291 to 292 °C

###

Documented melting point across a set of compounds

Example cases with answers are listed next.
1. CN(C)CC(=O)NCc1cccc(-c2cc3c(Nc4ccc(F)c(Cl)c4)ncnc3[nH]2)c1    272 to 273 °C
2. Fc1ccc(Nc2ncnc3[nH]c(-c4cccc(CN5CCOCC5)c4)cc23)cc1Cl    290 to 292 °C
3. O=C(CN1CCCCC1)NCc1ccc(-c2cc3c(Nc4ccc(F)c(Cl)c4)ncnc3[nH]2)cc1    229 to 232 °C
4. Cc1cccc(CNc2ncnc3[nH]c(-c4ccc(CN5CCCCC5)cc4)cc23)c1 [Example 107d]    246 to 248 °C
5. O=C(CCN1CCCCC1)NCc1ccc(-c2cc3c(Nc4ccc(F)c(Cl)c4)ncnc3[nH]2)cc1    230 to 235 °C
6. C[C@@H](Nc1ncnc2[nH]c(-c3ccc(CNC(=O)CN4CCN(C)CC4)cc3)cc12)c1ccccc1    150 to 152 °C
7. Fc1ccc(Nc2ncnc3[nH]c(-c4ccc(CN5CCCC5)cc4)cc23)cc1Cl    268 to 270 °C
8. CC(C)NCc1ccc(-c2cc3c(Nc4ccc(F)c(Cl)c4)ncnc3[nH]2)cc1    282 to 284 °C

Continue with the next compound.
Tell me the measured melting point of "COc1ccc(Nc2ncnc3[nH]c(-c4cccc(CN5CCN(C)CC5)c4)cc23)cc1O" , please. 251 to 252 °C

###

Documented melting point across a set of compounds

Example cases with answers are listed next.
1. O=C(CN1CCOCC1)NCc1ccc(-c2cc3c(Nc4ccc(F)c(Cl)c4)ncnc3[nH]2)cc1 [Example 48]    272 to 275 °C
2. C[C@@H](Nc1ncnc2[nH]c(-c3cccc(CN(C)C)c3)cc12)c1ccccc1 [Example 25]    108 to 110 °C

Tell me the measured melting point of C[C@@H](Nc1ncnc2[nH]c(-c3ccc(CN(C)C)cc3)cc12)c1ccc(Cl)cc1 [Example 76] , please. 273 to 274 °C

Tell me the measured melting point of O=C(CN1CCCCC1)NCc1cccc(-c2cc3c(Nc4ccc(F)c(Cl)c4)ncnc3[nH]2)c1 [Example 66] , please. 252 to 254 °C

Tell me the measured melting point of c1ccc(COc2ccc(Nc3ncnc4[nH]c(-c5ccc(CN6CCCCC6)cc5)cc34)cc2)cc1 [Example 19] , please. 256 to 258 °C

###

Documented melting point across a set of compounds

Example cases with answers are listed next.
1. C[C@@H](Nc1ncnc2[nH]c(-c3cccc(CN4CCN(C)CC4)c3)cc12)c1ccccc1    112 to 115 °C
2. C[C@@H](Nc1ncnc2[nH]c(-c3ccc(CNC(C)(C)C)cc3)cc12)c1ccccc1 [Example 16d]    > 300 °C

Tell me the measured melting point of "C[C@@H](Nc1ncnc2[nH]c(-c3ccc(CNC(=O)CCCN(C)C)cc3)cc12)c1ccccc1" , please. 195 to 203 °C

Tell me the measured melting point of "CCN1CCN(Cc2ccc(-c3cc4c(NCc5ccccc5Cl)ncnc4[nH]3)cc2)CC1" , please. 255 to 256 °C
